These entries and their values trace back to ChEMBL document CHEMBL1143026.

Experiment: Inhibition of pig kidney microsomal leucine aminopeptidase
Design: species or system Sus scrofa
Overview of recorded pKi for various compounds
pKi field: float, defined as -log10 of concentration (mol/L).

Completed entries (count: 3):
>>> endpoint_result("NCc1ccc(NC(CP(=O)(O)C(N)CCc2ccccc2)C(=O)O)cc1 (centres undefined)")
6.25
>>> endpoint_result("NCc1ccc(CNC(CP(=O)(O)C(N)CCc2ccccc2)C(=O)O)cc1 (stereo in doubt; 8,F2)")
5.58
>>> endpoint_result("NC(CCc1ccccc1)P(=O)(O)CC(NCc1ccccc1)C(=O)O (stereo in doubt; 6)")
2.82

Turning now to a further compound:
Dear colleague, please send me the reported pKi for NCc1ccc(CNC(CP(=O)(O)C(N)CCc2ccccc2)C(=O)O)cc1 (stereo in doubt; 8,F1) when you can. 4.70
